protocol: cells
Format: functional, cell-based
Calls of active or inactive are those of the source.
propertyMeasured: EC50

Some compounds with recorded EC50:
compound	EC50
Cc1ccc(C)c(S(=O)(=O)N2CCN(Cc3ccc(O)c4ncccc34)CC2)c1	7.58 µM (active)
COc1cc(C(=O)N/N=C(\c2ccccc2)c2ccccn2)cc(OC)c1OC	10.3 µM (active)
CCOC(=O)c1c(-c2ccccc2)oc2ccc(OCC(O)CN(C)C)cc12 (centres undefined)	> 350 µM (not active)

We now examine a further compound.
EC50 measured on "COc1cccc(/C=N/NC(=O)c2nc(-c3ccccc3)cc(-c3ccccc3)n2)c1O" = 12.8 µM (active)

* * *

measurementTarget: 26S proteasome non-ATPase regulatory subunit 14 (Homo sapiens)
Sequence (O00487 whole entry): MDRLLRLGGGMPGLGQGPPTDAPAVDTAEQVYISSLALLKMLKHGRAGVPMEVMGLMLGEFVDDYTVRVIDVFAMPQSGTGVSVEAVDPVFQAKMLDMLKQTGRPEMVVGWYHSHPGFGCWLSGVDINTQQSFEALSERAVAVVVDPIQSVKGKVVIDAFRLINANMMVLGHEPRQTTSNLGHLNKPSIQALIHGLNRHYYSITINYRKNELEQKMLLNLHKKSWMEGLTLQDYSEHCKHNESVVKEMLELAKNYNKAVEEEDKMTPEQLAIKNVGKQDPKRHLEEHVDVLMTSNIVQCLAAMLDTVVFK
protocol: inhibition of proteasome subunit RPN11 – biochemical, fluorescence polarization, uHTS hits, confirmation (AID 602368)
Assay type: functional
Activity calls are given as the source filed them.
propertyMeasured: IC50

structureAsSmiles	IC50
COC(=O)c1c(-c2cccnc2)csc1NC(=O)c1cc(C)on1	29.6 µM (active)
C=Cc1ccc(Cn2c(C(=O)O)c(C=O)c3ccccc32)cc1	12.6 µM (active)
O=[N+]([O-])c1ccc(N/N=C/c2c[nH]c3ccccc23)cc1	1.77 µM (active)

We now examine a further compound.
IC50 measured on "CCc1ccc(OCC(=O)NNC(=O)c2cc(S(=O)(=O)N(C)C)ccc2N2CCCC2)cc1" = 47 µM (active)

* * *

measurementTarget: DNA repair protein RAD52 homolog (Homo sapiens, UniProt P43351)
Sequence (P43351 whole entry): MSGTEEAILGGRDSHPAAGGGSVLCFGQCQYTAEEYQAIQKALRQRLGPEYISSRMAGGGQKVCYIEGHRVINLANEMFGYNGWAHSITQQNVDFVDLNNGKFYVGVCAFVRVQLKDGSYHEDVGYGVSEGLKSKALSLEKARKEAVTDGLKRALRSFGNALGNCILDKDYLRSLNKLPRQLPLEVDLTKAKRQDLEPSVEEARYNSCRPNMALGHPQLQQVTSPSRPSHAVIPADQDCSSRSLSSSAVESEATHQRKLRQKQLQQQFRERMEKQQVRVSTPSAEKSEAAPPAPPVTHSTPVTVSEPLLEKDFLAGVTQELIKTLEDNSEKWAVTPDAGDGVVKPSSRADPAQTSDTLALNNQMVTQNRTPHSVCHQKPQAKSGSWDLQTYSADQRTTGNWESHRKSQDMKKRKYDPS
Assay type: functional, biochemical
Active and inactive are the calls of the source.
propertyMeasured: AC50

Some molecules with recorded AC50:
molecule	AC50
OC1CC2CCC(C1)N2CCCN1c2ccccc2Sc2ccc(Cl)cc21 (stereo not given)	12.9 µM (active)
Cc1ccc(F)cc1-c1cc2nc(NCCCN(C)C)n(C)c(=O)c2s1	19.2 µM (active)
CCOC(=O)c1c(-c2ccccc2)oc2ccc(OCC(O)CN(C)C)cc12 (stereo not given)	15.5 µM (active)
N=C(N)Nc1ccc2[nH]c3c(c2c1)C[C@@]1(O)[C@H]2Cc4ccc(O)c5c4[C@@]1(CCN2CC1CC1)[C@H]3O5	8.43 µM (active)

We now examine a further molecule.
AC50 measured on "CC(=O)Nc1cc(-c2cccc(C(=O)NCCN(C)C)c2)cn2c(-c3ccc(C(C)=O)cc3)cnc12" = 2.12 µM (active)

* * *

measurementTarget: UniProt P49327
Sequence (P49327 whole entry, the tested form may be a part): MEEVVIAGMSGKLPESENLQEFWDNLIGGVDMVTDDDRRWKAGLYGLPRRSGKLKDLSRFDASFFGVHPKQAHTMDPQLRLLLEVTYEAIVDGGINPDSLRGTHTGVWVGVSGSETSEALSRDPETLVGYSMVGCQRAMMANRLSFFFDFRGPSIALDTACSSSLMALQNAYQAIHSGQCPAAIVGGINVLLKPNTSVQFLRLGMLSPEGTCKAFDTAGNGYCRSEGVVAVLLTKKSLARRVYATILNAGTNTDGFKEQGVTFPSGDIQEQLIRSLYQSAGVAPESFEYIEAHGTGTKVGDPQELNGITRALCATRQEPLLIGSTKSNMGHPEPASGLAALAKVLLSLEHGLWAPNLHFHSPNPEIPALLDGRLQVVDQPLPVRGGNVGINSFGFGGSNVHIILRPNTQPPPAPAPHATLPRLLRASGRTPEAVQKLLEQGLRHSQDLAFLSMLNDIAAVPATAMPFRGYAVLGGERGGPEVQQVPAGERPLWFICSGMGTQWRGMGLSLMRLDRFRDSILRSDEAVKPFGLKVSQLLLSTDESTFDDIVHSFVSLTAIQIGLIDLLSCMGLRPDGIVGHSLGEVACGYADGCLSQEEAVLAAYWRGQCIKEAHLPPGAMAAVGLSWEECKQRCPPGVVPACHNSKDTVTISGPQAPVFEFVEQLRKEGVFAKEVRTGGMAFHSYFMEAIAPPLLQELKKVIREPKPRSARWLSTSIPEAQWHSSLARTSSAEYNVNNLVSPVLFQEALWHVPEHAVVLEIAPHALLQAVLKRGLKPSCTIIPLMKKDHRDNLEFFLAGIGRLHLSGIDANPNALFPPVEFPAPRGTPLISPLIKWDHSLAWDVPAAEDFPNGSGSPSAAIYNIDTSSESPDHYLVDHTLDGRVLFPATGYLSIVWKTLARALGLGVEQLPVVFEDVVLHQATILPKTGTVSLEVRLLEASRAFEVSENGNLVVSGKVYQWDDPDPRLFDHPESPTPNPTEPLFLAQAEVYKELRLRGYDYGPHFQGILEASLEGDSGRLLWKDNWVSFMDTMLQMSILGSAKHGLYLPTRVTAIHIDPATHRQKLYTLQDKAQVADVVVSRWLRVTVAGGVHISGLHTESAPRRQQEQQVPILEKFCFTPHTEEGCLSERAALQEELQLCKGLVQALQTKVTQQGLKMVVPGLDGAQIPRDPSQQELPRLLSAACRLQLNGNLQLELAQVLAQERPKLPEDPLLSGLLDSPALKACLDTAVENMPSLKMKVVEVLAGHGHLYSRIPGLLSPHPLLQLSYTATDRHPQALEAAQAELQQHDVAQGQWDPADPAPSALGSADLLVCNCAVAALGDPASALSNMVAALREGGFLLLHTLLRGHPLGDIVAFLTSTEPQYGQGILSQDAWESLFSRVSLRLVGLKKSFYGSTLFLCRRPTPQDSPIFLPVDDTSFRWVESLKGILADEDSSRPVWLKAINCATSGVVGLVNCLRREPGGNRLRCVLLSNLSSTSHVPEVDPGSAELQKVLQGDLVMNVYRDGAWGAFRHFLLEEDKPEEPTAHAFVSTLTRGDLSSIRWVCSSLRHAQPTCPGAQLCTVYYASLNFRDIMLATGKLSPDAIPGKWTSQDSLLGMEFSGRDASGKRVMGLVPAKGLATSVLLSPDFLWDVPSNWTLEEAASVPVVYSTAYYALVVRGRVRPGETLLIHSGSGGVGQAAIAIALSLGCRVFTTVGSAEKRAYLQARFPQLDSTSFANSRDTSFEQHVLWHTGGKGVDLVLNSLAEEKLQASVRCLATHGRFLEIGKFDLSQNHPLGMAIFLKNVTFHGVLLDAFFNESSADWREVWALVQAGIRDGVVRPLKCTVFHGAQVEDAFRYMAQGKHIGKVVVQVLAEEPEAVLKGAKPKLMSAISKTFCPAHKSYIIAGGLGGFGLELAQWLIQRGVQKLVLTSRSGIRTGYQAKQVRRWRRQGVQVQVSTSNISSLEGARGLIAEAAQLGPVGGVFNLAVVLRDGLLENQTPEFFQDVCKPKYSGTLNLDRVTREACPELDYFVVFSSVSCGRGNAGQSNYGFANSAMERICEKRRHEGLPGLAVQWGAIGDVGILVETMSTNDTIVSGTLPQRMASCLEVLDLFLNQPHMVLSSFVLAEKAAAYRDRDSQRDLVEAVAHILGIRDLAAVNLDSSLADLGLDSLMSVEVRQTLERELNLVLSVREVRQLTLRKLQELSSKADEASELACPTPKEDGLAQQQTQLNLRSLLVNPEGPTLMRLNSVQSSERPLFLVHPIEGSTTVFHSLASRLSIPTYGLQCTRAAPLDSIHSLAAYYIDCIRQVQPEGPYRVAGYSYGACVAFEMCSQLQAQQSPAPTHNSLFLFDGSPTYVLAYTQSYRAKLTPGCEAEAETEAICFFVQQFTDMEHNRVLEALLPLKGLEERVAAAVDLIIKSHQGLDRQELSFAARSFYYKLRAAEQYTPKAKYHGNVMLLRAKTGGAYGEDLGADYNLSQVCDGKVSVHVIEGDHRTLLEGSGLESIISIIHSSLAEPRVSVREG
protocol: FAS thioesterase domain inhibitors, dose response, biochemical, endpoint fluorescence intensity, uHTS hits (AID 624327);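 also: fluorescence from hydrolysis of an O-methyl fluorescein acyl ester substrate by the enzyme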
Type: functional
Activity calls are given as the source filed them.
Kindly state IC50 for each of the entries shown.

Some compounds with recorded IC50:
compound	IC50
CCn1cc(C(=O)NCCC2=CCCCC2)c(=O)c2cc(S(=O)(=O)N(C)C)ccc21	4.69 µM (active)
CCn1cc(C(=O)NCc2ccco2)c(=O)c2cc(S(=O)(=O)N3CC(C)CC(C)C3)ccc21 (centres undefined)	4.25 µM (active)
O=C(Nc1ccc(Cc2ccncc2)cc1)c1cc([N+](=O)[O-])ccc1N1CCOCC1	1.53 µM (active)

IC50 measured on "CC(C)(C)N(Cc1ccccc1)C(=O)COC(=O)c1ccc([N+](=O)[O-])o1" = 16.2 µM (active)

* * *

Test system: H9c2;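 also: cell death induced by hydrogen peroxide oxidative stress; compound pretreatment for 60 min then peroxide exposure for 2 h; potency is for protecting the cells against peroxide damage rather than for killing them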;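 also: confirmatory concentration-response retest of ultra-high-throughput screening hits for modulation of myocardial damage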
protocol: cells
Type: functional, cell-based
conditionSet: Rattus norvegicus, H9c2, Myocardium
Activity calls are given as the source filed them.
Reply using exactly one outcome from YES for active, NO for inactive

Fill in: this test's call for "COc1cc(C(=O)Nc2nc(OC)c(-c3ccccc3)c(OC)n2)cc(OC)c1OC" is ___ NO

Fill in: this test's call for CC(OC(=O)Cn1[nH]c(=O)c2ccccc2c1=O)C(=O)Nc1ccc(F)cc1 (stereo unspecified) is ___ NO

Fill in: this test's call for "Cc1ncc(CO)c2c1Oc1nc(-c3ccccc3)nc(SCC(=O)N3CCCCC3)c1C2" is ___ NO
